For each record, write down the corresponding normalized growth.
# protocol: chemical genetic growth profiling, strain panel (AID 1159580);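 further: tested at 20 µM; growth read once vehicle control cultures reached saturation at 30 °C; 1 = growth at the plate median or of vehicle wells; lower values mean less growth of the strain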
# condition.details: S. cerevisiae deletion strains, growth OD, locus YIL066C, strain RNR3, hits give low values
Out of some 5,500 compounds screened, about 2,000 (36%) were called active. Not shown: some 18% with an inconclusive outcome. Some of the results follow.
// return just the number, without any unit appended

Sample CN(C)C1C(=O)C(C(N)=O)=C(O)C2(O)C(=O)C3=C(O)c4c(O)ccc(Cl)c4C(C)(O)C3CC12 (stereo not given) ; normalized growth observed: 0.993

Sample CN(C)CCCN1c2ccccc2Sc2ccccc21 ; normalized growth observed: 1

Sample Oc1cccc(O)c1 ; normalized growth observed: 0.999

Sample CC[N+](C)(C)c1cccc(O)c1 ; normalized growth observed: 0.985

Sample CN(C)[C@@H]1C(=O)C(C(N)=O)=C(O)[C@@]2(O)C(=O)C3=C(O)c4c(O)ccc(Cl)c4[C@@](C)(O)[C@H]3C[C@@H]12 ; normalized growth observed: 0.922

----------
# protocol: chemical genetic growth profiling, strain panel (AID 1159580);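 further: tested at 20 µM; growth read once vehicle control cultures reached saturation at 30 °C; 1 = growth at the plate median or of vehicle wells; lower values mean less growth of the strain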
# condition.details: S. cerevisiae deletion strains, growth OD, locus YDL040C, strain nat1, hits give low values
Hit rate of the full screen: of about 5,500 compounds, about 2,000 (36%) were called active. Roughly 18% stayed inconclusive and do not appear here. The list shows a part of the results.
quantity: normalized growth
// return just the number, without any unit appended

Sample CO[C@H]1CC(O[C@@H]2/C(C)=C/C[C@@H]3C[C@@H](C[C@]4(CC[C@H](C)[C@@H](C5CCCCC5)O4)O3)OC(=O)[C@@H]3C=C(C)/C(=N\O)[C@H]4OC/C(=C\C=C\[C@@H]2C)[C@]43O)O[C@@H](C)C1O (stereo not given in full) ; normalized growth observed: 1.02

Sample CC(=O)N[C@@H](Cc1c[nH]c2ccccc12)C(N)=O ; normalized growth observed: 1.02

Sample CC(=O)O[C@@H]1CC2C(C)(C)C(=O)C=C[C@]2(C)C2CC[C@]3(C)C(=CC(=O)O[C@H]3c3ccoc3)[C@@]21C (stereo not given in full) ; normalized growth observed: 1

Sample CCN(CC)CCOC(=O)C1(C2CCCCC2)CCCCC1 ; normalized growth observed: 0.99

Sample C=C1C[C@]23C[C@@]1(O)CC[C@H]2[C@@]12C=C[C@H](O)[C@@](C)(C(=O)O1)[C@H]2[C@@H]3C(=O)O ; normalized growth observed: 1.03

Sample CC(=O)O[C@H]1CC[C@@]2(C)C(=CC(=O)C3C4CCC(C(C)CCCC(C)C)[C@@]4(C)CCC32)C1 (stereo not given in full) ; normalized growth observed: 0.991

Sample CCC(C)[C@H]1O[C@]2(C=C[C@@H]1C)C[C@@H]1C[C@@H](C/C=C(\C)[C@@H](OC3C[C@H](OC)C(O[C@H]4C[C@H](OC)[C@@H](O)[C@H](C)O4)[C@H](C)O3)[C@@H](C)/C=C/C=C3\CO[C@@H]4[C@H](O)C(C)=C[C@@H](C(=O)O1)[C@]34O)O2 (stereo not given in full) ; normalized growth observed: 0.983

Sample CN1CCN(C(=O)OC2c3nccnc3C(=O)N2c2ccc(Cl)cn2)CC1 (stereo not given) ; normalized growth observed: 0.981

Sample O=P1(N(CCCl)CCCl)NCCCO1 (stereo not given) ; normalized growth observed: 0.998

Sample CN(C)C(=O)Oc1cccc([N+](C)(C)C)c1 ; normalized growth observed: 0.992

Sample CC(C)=CC1C(C(=O)O)C1(C)C (stereo not given) ; normalized growth observed: 0.965

Sample NS(=O)(=O)c1cc2c(cc1Cl)NC(CSCc1ccccc1)=NS2(=O)=O ; normalized growth observed: 0.995

Sample Cc1scc2c1N(C(=O)CN1CCN(C)CC1)c1ccccc1NC2=O ; normalized growth observed: 0.967

Sample N=C(N)N ; normalized growth observed: 1

Sample COC(=O)/C(=C1\OC(=O)C(c2ccccc2)=C1O)c1ccccc1 ; normalized growth observed: 0.969

Sample CS(=O)(=O)c1ccc([C@@H](O)[C@@H](CO)NC(=O)C(Cl)Cl)cc1 ; normalized growth observed: 1.02

Sample CCN(CC)CCOCCOC(=O)C1(c2ccccc2)CCCC1 ; normalized growth observed: 0.998

Sample CC(C)(C)NC[C@H](O)c1ccc(O)c(CO)c1 ; normalized growth observed: 1.02

Sample CCOC(=O)[C@H](CCc1ccccc1)N[C@@H](C)C(=O)N1CCC[C@H]1C(=O)O ; normalized growth observed: 0.992

Sample CC(Cc1cccc(C(F)(F)F)c1)NCCOC(=O)c1ccccc1 (stereo not given) ; normalized growth observed: 0.994

Sample CC(C)CCCC(C)[C@H]1CCC2C3C(=O)C=C4C[C@@H](O)CC[C@]4(C)C3CC[C@@]21C (stereo not given in full) ; normalized growth observed: 0.982

Sample OC[C@H]1O[C@@H](O[C@@H]2[C@@H](CO)O[C@](O)(CO)[C@H]2O)[C@H](O)[C@@H](O)[C@H]1O ; normalized growth observed: 1.01

Sample CNCCCC12CCC(c3ccccc31)c1ccccc12 ; normalized growth observed: 0.989

Sample CCOC(=O)NNc1nncc2ccccc12 ; normalized growth observed: 0.996

Sample CC1(C)CC2C1CC[C@]1(CBr)CCC3C(CC(=O)O)C(=O)O[C@@]32C1 (stereo not given in full) ; normalized growth observed: 1.01

Sample CCC(C)C(=O)OC1[C@@H]2CC3=C4CC(=O)O[C@@H](c5ccoc5)[C@]4(C)CCC3[C@@](C)(C2=O)[C@@H](CC(=O)OC)C1(C)C (stereo not given in full) ; normalized growth observed: 0.991

Sample O=C(O)C1=CCCNC1 ; normalized growth observed: 0.989

Sample CC(=O)O[C@@H]1C=C[C@@]2(C)C(C[C@@H](OC(C)=O)[C@@]3(C)C4=CC(=O)O[C@@H](c5ccoc5)[C@]4(C)CCC23)C1(C)C (stereo not given in full) ; normalized growth observed: 0.993

Sample OC[C@H]1O[C@@H](O[C@H]2[C@H](O)[C@@H](O)[C@@H](O)O[C@@H]2CO)[C@H](O)[C@@H](O)[C@@H]1O ; normalized growth observed: 0.994

Sample COc1cc(C/C=C/c2ccccc2)c(OC)cc1O ; normalized growth observed: 0.973

FYI, the data here is from PubChem BioAssay AID1159580.
